Test: yeast display, Sf9 membrane polyspecificity reagent, FACS + sequencing; frameworks hold sequencing errors
Observation type: polyreactivity (PSR sort gate)

QVHHVESGGGLVQAGGSLRLSCAASGLTFYGYTMGRSRQAPGKERELVAAISRGTSTKYADSVKGRFTISRDNAKNTVYLQMNSLKPEETAVYYCAAKGSRSGMGYWGQGTQVTVSS high polyreactivity
QVQLVESGGGLVQAGGSLRLSCAASGFTFSSYAMGWYRQAPGKERELVAAISRSGGSTYYADSVKGRFTISRDNAKNTVYVQMNSLKPEDTAVYYCAARFFARHYYWGQGTQVTVSS high polyreactivity
QVQLVESGGGLVQAGGSLRLSCAASGSILRDYAMGWYRQAPGKERELVAAITTSGAITYYADSVKGRFTISRDNAKNTVYLQMNSLKTEDTAVYYCNAKYVRWYGKYNYWGQGTQVTVSS high polyreactivity
QVQLVESGGGLVQAGGSLRLSCAASGLTISTNAMGWYRQAPGKERELVAAISRAGSTYYADSVKGRFTISRDNAKNTVYLQMNSLKPEDTAVYYCAAKYRYSTYHRGSFNFWGQGTQVTVSS high polyreactivity
